Assay: Saturation mutagenesis of SEQ ID NO:109: dicamba decarboxylation activity of point mutants (CO2 released), fold of backbone (Tables 7, 8, Megatable 1)
Conditions: decarboxylation activity (CO2 released) of point mutant vs unmutated backbone protein; backbone SEQ ID NO: 109
endpoint: Fold Activity (fold)
Report the figure in fold without appending any unit label.

Exercise: What value of measured Fold Activity is listed for 155 (protein, Dicamba decarboxylase variant) MAQGKVALEEHFAIPETLQDSAGFVPGDYWKELQHRLLDIQDTRLKLMDAHGIETMILSLAAPAVQAIPDRRKAIEIARRANDFLAEECAKRPDRFLAFAALPLQDPDAATEELQRCVNDLGFVGALVNGFSVEGDGQTPLYYDLPQYRPFWGEVEKLDVPFYLHPRNPLPQDSRIYDGHPWLLGPTWAFAQETAVHALRLMASGLFDEHPRLNIILGHLGEGLPYMMYRIDHRIAWVHEPPRYPAKRRFMDYFNENFHITTSGNFRTQTLIDAILEIGADRILFSTDWPFENIDHAADWFNATSIAEADRLKIGRTNARRLFKLDGA ?
Solution: 1.5

Exercise: Ok, now 95 (protein, listed as Pseudomonas fluorescens) MAKKPRIDMHSHFFPRISEQEAAKFDANHAPWLQVSAKGDTGSIMMGKNNFRPVYQALWDPAFRIEEMDAQGVDVQVTCATPVMFGYTWEANKAAQWAERMNDFALEFAAHNPQRIKVLAQVPLQDLDLACKEASRAVAAGHLGIQIGNHLGDKDLDDATLEAFLTHCANEDIPILVHPWDMMGGQRMKKWMLPWLVAMPAETQLAILSLILSGAFERIPKSLKICFGHGGGSFAFLLGRVDNAWRHRDIVREDCPRPPSEYVDRFFVDSAVFNPGALELLVSVMGEDRVMLGSDYPFPLGEQKIGGLVLSSNLGESAKDKIISGNASKFFNINV
Solution: 1.4

Exercise: Ok, now 118 (protein, Dicamba decarboxylase variant clone: DC.5.033) MAKKPRIDMHSHFFPRISEQEAAKFDANHAPWLQVSAKGDTGSIMMGKNNFQPVYQALWDPAFRIEEMDAQGVDVQVTCATPVMFGYTWEANKAAQWAERMNDFALEFAAHNPQRIKVLAQVPLQDLDLACKEASRAVAAGHLGIQIGNHLGDKDLDDATLEAFLTHCANEDIPILVHGTDMMGGQRMKKWGLPWLVALAAEVQLAILSLILSGAFERIPKSLKICFSHGGGSFAFLLGLVDEAWRHVDIVREDCPRPPSEYVDRFFVDSVGNPGALELLVSVMGEDRVMLGSDYPHTTGEQKIGGLVLSSNLGESAKDKIISGNASKFFNINV
Solution: 1.4

Exercise: Ok, now 117 (protein, Dicamba decarboxylase variant clone: DC.5.008) MAKKPRIDMHSHFFPRISEQEAAKFDANHAPWLQVSAKGDTGSIMMGKNNFRPVYQALWDPAFRIEEMDAQGVDVQVTCATPVMFGYTWEANKAAQWAERMNDFALEFAAHNPQRIKVLAQVPLQDLDLACKEASRAVAAGHLGIQIGNHLGDKDLDDATLEAFLTHCANEDIPILVHPWDMMGGQRMKKWMLPVLVAAPAEVQLAILSLILSGAFERIPKSLKICFAGGGGSFAFLLGIVDLAWRHRDIVREDCPRPPSEYVDRFFVDSLVFNPGALELLVSVMGEDRVMLGSDYPFPTGEQKIGGLVLSSNLGESAKDKIISGNASKFFNINV
Solution: 1.8

Exercise: Ok, now 150 (protein, Dicamba decarboxylase variant) MAQGKVALEEHFAIPETLQDSAGFVPGDYWKELQHRLLDIQDTRLKLMDAHGIETMILSLAAPAVQAIPDRRKAIEIARRANDFLAEECAKRPDRFLAFAALPLQDPDAATEELQRTVNDLGFVGALVNGFSQEGDGQTPLYYDLPQYRPFWGEVEKLDVPFYLHPRNPLPQDSRIYDGHPWLLGPTWAFAQETAVHALRLMASGLFDEHPRLNIILGHMGEGLPYMMYRIDHRIAWVKLPPRYPAKRRFMDYFNENFHITTSGNFRTQTLIDAILEIGADRILFSTDWPFENIDHAADWFNATSIAEADRVKIGRTNARRLFKLDGD
Solution: 1.4

Exercise: Ok, now 17 (protein, Aspergillus niger) MARGKIALEEAFEVKGMDEEIDAQAALYIAPKDVERYKRQIVSITDERLQLSDQNGIGYSILSLTVPGIQGITDKDKAEKRARDVNNYIHDQIKDHRDRLGAFAALSMHDPRQAGHELRRCVKELGFHGALLNDVQHTGEGDDDQPLFYDQPDYDEFWRVAVELDVPVYLHPAAPLRDTLIYKQSYEDRKYLVGPPQSYCNGVALHLMGIIVNGVFDRFPNLKVIVGHMGERIPFDFWRMDHWVKGVTRPLAEKNGDTVCQKEPLYYFKRNIYITTSGHFSTQNLRYLYEWLGDERMMFSVDFPYERMEHGCQWYDDDAEKIKEALGGRDGYLRVGRDNARRLFKLTKFKDCDAV
Solution: 1.8

Exercise: Ok, now 143 (protein, Dicamba decarboxylase variant) MAQGKVALEEHFAIPETLQDSAGFVPSEYLKELQHRLLDIQDTRLKLMDAHGIETMILSLAAPAVQAIPDRRKAIEIARRANDFLAEECAKRPDRFLAFAALPMQDVDAATEELQRCVNDLGFVGALVNGFSVEGDGQTPLYYDLPQYRPFWGEVEKLDVPFYLHPRNPLPQDSRIYDGHPWLLGPTWAFAQETAVHALRLMASGLFDEHPRLNIILGHMGEGLPYMMYRIDHRIAWVHEPPRYPAKRRFMDYFNENFHITTSGNFRTQTLIDAILEIGADRILFSTDWPFENIDHAADWFNATSIAEADRVKIGRTNARRLFKLDGD
Solution: 1.2

Entry source: patent US20160040149A1
